Test system: KG-1
assay-text: Antiproliferative activity against human KG-1 cells assessed as inhibition of cell growth incubated for 72 hrs by MTT assay
Type: functional, cell-based
applied-conditions: KG-1, 72 h
measurement-name: IC50

Sure, the documented IC50 for Nc1nc2ccc(OC(F)(F)F)cc2s1 is > 10 µM

----------
assay-text: Cmax in tumor of female SCID mouse xenografted with human Daudi cells at 25 to 100 mg/kg, iv measured upto 24 hrs by LC-MS/MS analysis
Type: ADME, organism-based, Neoplasm
applied-conditions: dose 25-100 mg/kg
measurement-name: Cmax (ng/g)
Numbers only; they are read as ng/g.

Sure, the documented Cmax for CNc1ccc(-c2nc(N3CCOCC3)c3sc(CN(C)c4ncc(C(=O)NO)cn4)cc3n2)cn1 is 14500

----------
System: LAPC4
assay-text: Antiproliferative activity against human LAPC4 cells assessed as inhibition of cell growth measured after 72 hrs by SRB assay
Format: functional, cell-based
applied-conditions: LAPC4, 72 h
measurement-name: IC50 (nM)
Numbers only; they are read as nM.

Sure, the documented IC50 for COc1ccc(-c2nc(N3CCOCC3)c3sc(CN(C)c4ncc(C(=O)NO)cn4)cc3n2)cn1 [FIMEPINOSTAT] is 2

----------
subject-of-test: Histone deacetylase 1 (Homo sapiens, UniProt Q13547)
Sequence (Q13547 whole entry): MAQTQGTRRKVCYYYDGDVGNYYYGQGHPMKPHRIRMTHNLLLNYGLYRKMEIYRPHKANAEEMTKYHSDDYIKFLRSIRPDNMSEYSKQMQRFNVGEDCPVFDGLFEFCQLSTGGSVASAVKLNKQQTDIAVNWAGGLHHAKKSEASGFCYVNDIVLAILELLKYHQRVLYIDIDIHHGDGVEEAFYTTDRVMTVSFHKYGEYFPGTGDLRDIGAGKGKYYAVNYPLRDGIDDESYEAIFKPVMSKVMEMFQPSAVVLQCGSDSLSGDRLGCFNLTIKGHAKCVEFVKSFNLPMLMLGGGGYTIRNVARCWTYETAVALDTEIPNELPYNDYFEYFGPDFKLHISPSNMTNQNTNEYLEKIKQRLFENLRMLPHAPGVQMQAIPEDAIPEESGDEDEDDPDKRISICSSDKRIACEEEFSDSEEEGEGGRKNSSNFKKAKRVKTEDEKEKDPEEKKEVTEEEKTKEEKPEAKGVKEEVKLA
assay-text: Inhibition of HDAC1 in human HeLa cells incubated for 72 hrs by ELISA
Format: cell-based
measurement-name: IC50

• COc1ccc(-c2cn(CCCCCC(=O)NO)c(C)c2C(C)=O)cc1 = 52 nM

Okay, next one:
Sure, the documented IC50 for CC(=O)c1c(-c2ccc([N+](=O)[O-])cc2)cn(CCCCCC(=O)NO)c1C is 52 nM

----------
subject-of-test: Histone deacetylase 1 (Homo sapiens, UniProt Q13547)
assay-text: Inhibition of HDAC1 (unknown origin) preincubated for 10 mins followed by substrate addition and measured after 30 mins by fluorescence based microplate reader analysis
measurement-name: pIC50
Friendly reminder that pIC50 comes from taking -log10 of the concentration in mol/L.

Histone deacetylase 1 (Homo sapiens, UniProt Q13547) data for C=C[C@]1(C)CC[C@@H](C(=C)Cn2cccn2)C[C@H]1C(=C)CN1CCN(C(=O)CCCCCCC(=O)NO)CC1 ; its pIC50: 8.10

----------
assay-text: Metabolic stability in human plasma assessed as half life by LC-MS/MS analysis
Assay type: ADME, cell-free
measurement-name: half-life

Sure, the documented half-life for O=C(CCCCCCC(=O)Nc1nc2ccc(OC(F)(F)F)cc2s1)NO is > 120 min

----------
System: K562
assay-text: Antiproliferative activity against human K562 cells
Type: functional, cell-based
measurement-name: pIC50
Friendly reminder that pIC50 comes from taking -log10 of the concentration in mol/L.

Sure, the documented pIC50 for O=C(NO)c1ccc(CN(Cc2nnnn2Cc2ccccc2)C(=O)c2ccccc2C(F)(F)F)cc1 is 4.65

----------
subject-of-test: UniProt Q92769
Sequence (Q92769 whole entry): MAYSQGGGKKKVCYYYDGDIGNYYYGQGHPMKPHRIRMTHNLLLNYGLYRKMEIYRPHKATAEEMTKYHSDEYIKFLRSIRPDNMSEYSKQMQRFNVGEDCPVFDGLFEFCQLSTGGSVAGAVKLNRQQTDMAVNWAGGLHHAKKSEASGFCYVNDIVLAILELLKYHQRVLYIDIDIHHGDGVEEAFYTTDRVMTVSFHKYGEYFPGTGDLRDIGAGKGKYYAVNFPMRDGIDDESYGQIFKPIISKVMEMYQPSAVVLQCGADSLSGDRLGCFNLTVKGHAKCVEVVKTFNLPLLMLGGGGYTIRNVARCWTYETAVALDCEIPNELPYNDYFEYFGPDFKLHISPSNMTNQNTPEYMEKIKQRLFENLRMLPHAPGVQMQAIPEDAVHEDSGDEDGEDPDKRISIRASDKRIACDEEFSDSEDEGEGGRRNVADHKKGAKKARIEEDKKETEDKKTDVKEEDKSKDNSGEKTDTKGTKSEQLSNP
assay-text: Inhibition of HDAC2 (unknown origin) using 6-carboxyfluorescein peptide as substrate incubated for 18 hrs by fluorescence based assay
measurement-name: IC50 (nM)
Numbers only; they are read as nM.

Sure, the documented IC50 for COc1cc(/C=C/C(=O)CC(=O)/C=C/c2ccc(/C=C/C(=O)NO)cc2)ccc1O is 0.38

----------
System: HCT-116
assay-text: cells
applied-conditions: Homo sapiens
Description: Antiproliferative activity against human HCT-116 cells
measurement-name: pIC50
Friendly reminder that pIC50 comes from taking -log10 of the concentration in mol/L.

- COc1ccc2c3ccnc(C)c3n(CC3CCN(c4ncc(C(=O)NO)cn4)CC3)c2c1: 5.85
- O=C(CCCCCCNc1nccc(-c2sc(-c3ccccc3)nc2-c2cccc(NS(=O)(=O)c3c(F)cccc3F)c2F)n1)NO: 6.51
- CNC(=O)c1ccccc1Nc1nc(Nc2ccc(N3CCOCC3)cc2OC)ncc1Cl: 6.14

Sure, the documented pIC50 for COc1ccc2cc(C(=O)Oc3cccc(/C=C/C(=O)NO)c3)c(=O)oc2c1 is 5.16

Sure, the documented pIC50 for CC(C)(C)c1nc(-c2cccc(NS(=O)(=O)c3c(F)cccc3F)c2F)c(-c2ccnc(NCCCCCCC(=O)NO)n2)s1 is 6.51

----------
Test system: NCI-H2122
assay-text: Cytotoxicity against human NCI-H2122 cells assessed as inhibition of cell growth measured after 72 hrs by CellTiter-Glo luminescent viability assay
Type: functional, cell-based
applied-conditions: NCI-H2122, 72 h
measurement-name: pIC50
Friendly reminder that pIC50 comes from taking -log10 of the concentration in mol/L.

Sure, the documented pIC50 for CNc1ccc(-c2nc(N3CCOCC3)c3sc(CN(C)c4ncc(C(=O)NO)cn4)cc3n2)cn1 is 9.52

----------
assay-text: Cytotoxicity against human PBMC cells
Format: toxicity, cell-based
measurement-name: IC50 (µM)
Numbers only; they are read as µM.

Sure, the documented IC50 for CNCCOc1ccc(-c2cc(=O)c3cc(OCCCCCC(=O)NO)cc(O)c3o2)cc1 is 11.6

----------
assay-text: Metabolic stability in liver microsomes (unknown origin) assessed as half life
Assay type: ADME, Microsome
measurement-name: half-life (min)
Numbers only; they are read as min.

Sure, the documented half-life for COc1cc(-c2cccc(-c3ccc(/C=C/C(=O)NO)cc3)n2)cc(OC)c1OC is 54.8

----------
Test system: CWR22R
assay-text: Antiproliferative activity against human 22Rv1 cells assessed as inhibition of cell growth measured after 72 hrs by SRB assay
Type: functional, cell-based
applied-conditions: 22Rv1, 72 h
measurement-name: IC50 (nM)
Numbers only; they are read as nM.

Sure, the documented IC50 for COc1ccc(-c2nc(N3CCOCC3)c3sc(CN(C)c4ncc(C(=O)NO)cn4)cc3n2)cn1 [FIMEPINOSTAT] is 2

----------
Tested on: Plasmodium falciparum
assay-text: Antiplasmodial activity against artemisinin-resistant Plasmodium falciparum Dd2 R539T assessed as reduction in parasite growth incubated for 3 days by ELISA analysis
Format: functional, organism-based
applied-conditions: 72 h
measurement-name: pIC50
Friendly reminder that pIC50 comes from taking -log10 of the concentration in mol/L.

• C[C@@H]1CC[C@H]2[C@@H](C)C(SCCC(=O)NO)C[C@@H]3O[C@]4(C)CC[C@@H]1[C@]32OO4 (some centres not stated) = 8.72

Okay, next one:
Sure, the documented pIC50 for C[C@@H]1CC[C@H]2[C@@H](C)C(OCC(=O)NO)C[C@@H]3O[C@]4(C)CC[C@@H]1[C@]32OO4 (some centres not stated) is 8.72

----------
System: A549
assay-text: Antiproliferative activity against human A549 cells
Measured IC50, listed per entry.

* O=C(Cc1ccc(C(=O)NO)cc1)Nc1ccc2ncnc(Nc3ccc(I)cc3)c2c1 | 2200 nM
* O=C(NO)c1ccc(NC(=O)C2(c3ccc(-c4cn[nH]c4)cc3)CCCCC2)cc1 | 50 nM

Okay, next one:
Sure, the documented IC50 for Cc1cnc(Nc2ccc(OCCN3CCCC3)cc2)nc1Nc1cccc(S(=O)(=O)NC(C)(C)C)c1 is 560 nM

----------
subject-of-test: UniProt Q9UBN7
Sequence (Q9UBN7 whole entry): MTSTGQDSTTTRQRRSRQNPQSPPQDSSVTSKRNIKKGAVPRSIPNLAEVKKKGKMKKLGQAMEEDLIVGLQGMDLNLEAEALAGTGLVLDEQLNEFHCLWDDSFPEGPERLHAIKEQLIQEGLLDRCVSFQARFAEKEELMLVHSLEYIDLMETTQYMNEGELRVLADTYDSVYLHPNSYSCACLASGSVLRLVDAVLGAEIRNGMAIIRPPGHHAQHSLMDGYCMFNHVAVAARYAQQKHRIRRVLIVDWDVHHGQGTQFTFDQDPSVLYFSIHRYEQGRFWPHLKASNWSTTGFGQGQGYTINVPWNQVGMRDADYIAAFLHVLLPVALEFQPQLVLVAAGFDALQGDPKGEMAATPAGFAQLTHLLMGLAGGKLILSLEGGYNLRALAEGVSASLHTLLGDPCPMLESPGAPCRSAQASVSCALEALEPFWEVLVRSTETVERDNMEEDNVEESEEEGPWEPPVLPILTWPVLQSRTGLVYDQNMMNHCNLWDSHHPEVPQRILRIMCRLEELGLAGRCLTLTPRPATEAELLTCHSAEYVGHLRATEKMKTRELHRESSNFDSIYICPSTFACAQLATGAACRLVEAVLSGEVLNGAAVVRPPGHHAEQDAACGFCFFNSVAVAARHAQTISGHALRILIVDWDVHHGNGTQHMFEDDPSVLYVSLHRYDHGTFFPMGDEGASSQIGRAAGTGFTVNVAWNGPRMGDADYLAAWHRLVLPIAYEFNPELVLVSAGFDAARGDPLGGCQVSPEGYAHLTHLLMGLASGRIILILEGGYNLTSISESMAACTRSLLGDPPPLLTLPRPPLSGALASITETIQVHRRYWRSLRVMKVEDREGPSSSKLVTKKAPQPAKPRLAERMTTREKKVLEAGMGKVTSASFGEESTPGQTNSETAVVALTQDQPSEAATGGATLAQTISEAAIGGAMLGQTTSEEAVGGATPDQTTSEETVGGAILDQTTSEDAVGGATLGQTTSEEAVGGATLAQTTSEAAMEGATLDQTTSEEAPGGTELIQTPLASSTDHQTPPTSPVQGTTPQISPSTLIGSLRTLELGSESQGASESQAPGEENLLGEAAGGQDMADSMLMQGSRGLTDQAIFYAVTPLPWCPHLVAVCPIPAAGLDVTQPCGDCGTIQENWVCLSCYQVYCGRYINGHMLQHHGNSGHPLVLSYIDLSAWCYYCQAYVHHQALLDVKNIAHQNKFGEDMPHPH
assay-text: Inhibition of HDAC6 (unknown origin)
Measured pIC50, listed per entry.
Friendly reminder that pIC50 comes from taking -log10 of the concentration in mol/L.

- Nc1ccn(Cc2ccc(-c3cn(CCCCCCC(=O)NO)nn3)cc2)c(=O)n1: 8.08

Sure, the documented pIC50 for COc1ccc(-c2ccc(C(=O)N3CCc4c(cc(Cl)c(C(=O)NO)c4Cl)C3)cc2)cc1 is 8.06

Sure, the documented pIC50 for O=C(Cc1ccc(C(=O)NO)cc1)Nc1ccc2ncnc(Nc3ccc(I)cc3)c2c1 is 4.79

Sure, the documented pIC50 for O=C(NO)c1ccc(CN(Cc2nnnn2Cc2ccccc2)C(=O)c2ccccc2C(F)(F)F)cc1 is 7.22

Sure, the documented pIC50 for O=C(/C=C/c1ccc2nn(Cc3ccc(Cl)cc3)cc2c1)NO is 6.64

Sure, the documented pIC50 for O=C(NO)c1c(Cl)cc2c(c1Cl)CCN(C(=O)c1cc3ccccc3[nH]1)C2 is 9.70

Sure, the documented pIC50 for O=C(/C=C/c1cccc(S(=O)(=O)n2ccc3cccnc32)c1)NO is 7.49

Sure, the documented pIC50 for CC(C)(C)c1nc(-c2cccc(NS(=O)(=O)c3c(F)cccc3F)c2F)c(-c2ccnc(NCCCCCCC(=O)NO)n2)s1 is 7.81

Sure, the documented pIC50 for COc1cc(OCCCCCCC(=O)NO)ccc1C1c2ccc(O)cc2CCN1CC(C)(C)F (configuration not stated) is 7.59

Sure, the documented pIC50 for COc1ccc2c3ccnc(C)c3n(CC3CCN(c4ncc(C(=O)NO)cn4)CC3)c2c1 is 6.35

----------
Measured pIC50, listed per entry.
Test system: HCT-116
assay-text: cells
applied-conditions: Homo sapiens
Friendly reminder that pIC50 comes from taking -log10 of the concentration in mol/L.

Before answering, review these 2 worked examples.
• CNC(=O)c1ccccc1Nc1nc(Nc2ccc(NC(=O)CCCCCCC(=O)NO)cc2)ncc1Cl = 6.74
• O=C(Cc1ccc(C(=O)NO)cc1)Nc1ccc2ncnc(Nc3ccc(I)cc3)c2c1 = 5.66

Sure, the documented pIC50 for CCN(CC)c1ccc2cc(C(=O)Oc3cccc(/C=C/C(=O)NO)c3)c(=O)oc2c1 is 5.15

Sure, the documented pIC50 for O=C(Cc1ccc(C(=O)NO)cc1)Nc1ccc2ncnc(Nc3ccc(Cl)c(F)c3)c2c1 is 5.66

Sure, the documented pIC50 for CN(C)c1nc2c(Br)c(Br)c(Br)c(Br)c2n1CCCCCCCC(=O)NO is 5.63
